These measurements were taken from PubChem BioAssay AID504766.

- assaySystem: Nuclear receptor subfamily 0 group B member 1 (Homo sapiens)
- procedureText: DAX1 (NR0B1) inhibitors, primary screen, cell-based, HEK293, Gal4-DAX1, luciferase luminescence (AID 504766);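 also: 0% = DAX1-transfected cells with DMSO and 100% = empty-vector control cells with DMSO; inhibition shows as a rise in luminescence from relieved DAX1 repression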
- condition: HEK293 Gal4-DAX1 luciferase reporter, at 6.75 µM, stronger effect = higher value
The campaign covered roughly 340,000 compounds. About 3,400 (1%) were called active. This excerpt belongs to a sample that is enriched for actives.
measuredAttribute: inhibition (%)

molecule	measuredAttribute	reportedMeasurement
COc1ccc(-n2nc(C(=O)NCC(=O)N3CCCCCC3)c3ccccc3c2=O)cc1Cl	inhibition	-1.56
COc1ccc(-n2nc(C(=O)NCC(=O)N3CCN(c4ccccc4OC)CC3)c3ccccc3c2=O)c(OC)c1	inhibition	-1.07
CCOc1ccc(CCNC(=O)COC(=O)c2ccc(C)c(S(=O)(=O)N3CCOCC3)c2)cc1OCC	inhibition	-0.65
CCOC(=O)CSc1nccc(N(C)C)c1C#N	inhibition	0.68
O=S(=O)(NC1CCCC1)c1ccc(-n2cnnn2)cc1	inhibition	0.06
CC1(C)C2CCC1(C)C(OC(=O)c1ccc(O)cc1)C2 (configuration not stated)	inhibition	4.45
O=C(CSC(=S)N1CCOCC1)c1ccccc1	inhibition	-3.24
CC1(C)C2CCC1(C)C(OC(=O)CCn1ccnc1)C2 (configuration not stated)	inhibition	0.23
COc1ccc(C(=O)O/N=C(\N)c2ccccn2)cc1[N+](=O)[O-]	inhibition	4.71
Cc1nonc1NC(=O)CSc1nc2ccccc2cc1C#N	inhibition	2.09
O=C1NC(Cc2ccccc2)c2nc3ccc(Br)cc3c(=O)n2-c2cc3ccccc3cc21 (configuration not stated)	inhibition	0.19
COc1ccccc1OCC(=O)O/N=C(\N)c1ccccn1	inhibition	2.91
CN1CCN(c2ccncc2S(=O)(=O)N2CCCC2)CC1	inhibition	0.96
N/C(=N\OC(=O)c1ccc([N+](=O)[O-])cc1)c1ccccn1	inhibition	0.14
COC(=O)c1sccc1NC(=O)c1ccc(Cl)cc1	inhibition	0.77
CCN(CC)C(=O)C(C)N1c2cccc3cccc(c23)S1(=O)=O (configuration not stated)	inhibition	0.49
Cc1ccc(C(=O)OC2CCCN(C)C2)cc1 (configuration not stated)	inhibition	1.89
